Assay: Stability in physiological solution assessed as degradation at 37 degC after 1 hr at pH 2
Assay type: physicochemical
Conditions: read-out: Activity
measured-endpoint: degraded at 1 h

smiles-text	result
O=C1N[C@@H]2C(=C[C@H](O)[C@@H](O)[C@H]2O)c2cc3c(c(O[C@H]4O[C@H](CO)[C@@H](O)[C@H](O)[C@H]4O)c21)OCO3	< 20%

----------
Test: Elimination half life in B6D2F1 mouse at 5 mg/kg, iv single dose
Format: ADME, organism-based
Set-up: dose 5 mg/kg, route intravenous
Conditions: in vivo, read-out: beta t1/2
measured-endpoint: half-life (h)

smiles-text	measured-endpoint	quantitative-readout
O=C1N[C@@H]2C(=C[C@H](O)[C@@H](O)[C@H]2O)c2cc3c(c(O)c21)OCO3	half-life	1.1
